Test system: RERF-LC-KJ
method_notes: relative viability (nuclei count vs DMSO), 5 days (fraction); higher = more cells survive
details: first compound 0.5 µM
reported_property: relative viability
A bare number is all that is needed in reply.

Which relative viability reading was recorded for the compound CC1(C)CCC(c2ccc(Cl)cc2)=C(CN2CCN(c3ccc(C(=O)NS(=O)(=O)c4ccc(N[C@H](CCN5CCOCC5)CSc5ccccc5)c(S(=O)(=O)C(F)(F)F)c4)cc3)CC2)C1 [Navitoclax] + C[C@]1(O)C[C@@H](c2nc(-c3ccc4ccc(-c5ccccc5)nc4c3)c3c(N)nccn32)C1 [Linsitinib] (partner 1 µM) ?
0.904

Which relative viability reading was recorded for the compound CC1(C)CCC(c2ccc(Cl)cc2)=C(CN2CCN(c3ccc(C(=O)NS(=O)(=O)c4ccc(N[C@H](CCN5CCOCC5)CSc5ccccc5)c(S(=O)(=O)C(F)(F)F)c4)cc3)CC2)C1 [Navitoclax] + O=C(c1cc(Cc2n[nH]c(=O)c3ccccc23)ccc1F)N1CCN(C(=O)C2CC2)CC1 [Olaparib] (partner 8 µM) ?
0.983

Which relative viability reading was recorded for the compound CC1(C)CCC(c2ccc(Cl)cc2)=C(CN2CCN(c3ccc(C(=O)NS(=O)(=O)c4ccc(N[C@H](CCN5CCOCC5)CSc5ccccc5)c(S(=O)(=O)C(F)(F)F)c4)cc3)CC2)C1 [Navitoclax] + N=C(N)NC(=N)NCCc1ccccc1 [Phenformin] (partner 250 µM) ?
0.437

Which relative viability reading was recorded for the compound CC1(C)CCC(c2ccc(Cl)cc2)=C(CN2CCN(c3ccc(C(=O)NS(=O)(=O)c4ccc(N[C@H](CCN5CCOCC5)CSc5ccccc5)c(S(=O)(=O)C(F)(F)F)c4)cc3)CC2)C1 [Navitoclax] + COc1cc2c(Oc3ccc(NC(=O)C4(C(=O)Nc5ccc(F)cc5)CC4)cc3F)ccnc2cc1OCCCN1CCOCC1 [Foretinib] (partner 0.25 µM) ?
0.849

Which relative viability reading was recorded for the compound CC1(C)CCC(c2ccc(Cl)cc2)=C(CN2CCN(c3ccc(C(=O)NS(=O)(=O)c4ccc(N[C@H](CCN5CCOCC5)CSc5ccccc5)c(S(=O)(=O)C(F)(F)F)c4)cc3)CC2)C1 [Navitoclax] + COc1cccc2cc(-c3nc([C@H]4CC[C@H](C(=O)O)CC4)n4ncnc(N)c34)[nH]c12 [OSI-027] (partner 0.5 µM) ?
0.616

* * *

Consider the following compounds; for each one, report its relative viability.
Tested on: NCI-H322M
method_notes: relative viability (nuclei count vs DMSO), 5 days (fraction); higher = more cells survive
details: first compound 0.3162 µM

Which relative viability reading was recorded for the compound NC(=O)Nc1cc(-c2cccc(F)c2)sc1C(=O)N[C@H]1CCCNC1 [AZD7762] + C[C@]1(O)C[C@@H](c2nc(-c3ccc4ccc(-c5ccccc5)nc4c3)c3c(N)nccn32)C1 [Linsitinib] (partner 1 µM) ?
0.987

Which relative viability reading was recorded for the compound NC(=O)Nc1cc(-c2cccc(F)c2)sc1C(=O)N[C@H]1CCCNC1 [AZD7762] + COc1cc2c(Oc3ccc(NC(=O)C4(C(=O)Nc5ccc(F)cc5)CC4)cc3F)ccnc2cc1OCCCN1CCOCC1 [Foretinib] (partner 0.25 µM) ?
0.601

Which relative viability reading was recorded for the compound NC(=O)Nc1cc(-c2cccc(F)c2)sc1C(=O)N[C@H]1CCCNC1 [AZD7762] + CCNC(=O)c1noc(-c2cc(C(C)C)c(O)cc2O)c1-c1ccc(CN2CCOCC2)cc1 [Luminespib] (partner 0.01 µM) ?
0.248

Which relative viability reading was recorded for the compound NC(=O)Nc1cc(-c2cccc(F)c2)sc1C(=O)N[C@H]1CCCNC1 [AZD7762] + CS(=O)(=O)N1CCN(Cc2cc3nc(-c4cccc5[nH]ncc45)nc(N4CCOCC4)c3s2)CC1 [Pictilisib] (partner 1 µM) ?
0.5

* * *

System: HOP-62
method_notes: relative viability (nuclei count vs DMSO), 5 days (fraction); higher = more cells survive
details: first compound 0.05 µM
Consider the following compounds; for each one, report its relative viability.
A bare number is all that is needed in reply.

Which relative viability reading was recorded for the compound CC1(C)CCC(c2ccc(Cl)cc2)=C(CN2CCN(c3ccc(C(=O)NS(=O)(=O)c4ccc(N[C@H](CCN5CCOCC5)CSc5ccccc5)c(S(=O)(=O)C(F)(F)F)c4)cc3)CC2)C1 [Navitoclax] + COc1cccc2cc(-c3nc([C@H]4CC[C@H](C(=O)O)CC4)n4ncnc(N)c34)[nH]c12 [OSI-027] (partner 0.5 µM) ?
0.863

Which relative viability reading was recorded for the compound CC1(C)CCC(c2ccc(Cl)cc2)=C(CN2CCN(c3ccc(C(=O)NS(=O)(=O)c4ccc(N[C@H](CCN5CCOCC5)CSc5ccccc5)c(S(=O)(=O)C(F)(F)F)c4)cc3)CC2)C1 [Navitoclax] + O=C(CCCCCCC(=O)Nc1ccccc1)NO [Vorinostat] (partner 1 µM) ?
0.618

Which relative viability reading was recorded for the compound CC1(C)CCC(c2ccc(Cl)cc2)=C(CN2CCN(c3ccc(C(=O)NS(=O)(=O)c4ccc(N[C@H](CCN5CCOCC5)CSc5ccccc5)c(S(=O)(=O)C(F)(F)F)c4)cc3)CC2)C1 [Navitoclax] + CC(=O)Nc1cccc(-n2c(=O)n(C3CC3)c(=O)c3c(Nc4ccc(I)cc4F)n(C)c(=O)c(C)c32)c1 [Trametinib] (partner 0.02 µM) ?
0.362

* * *

Consider the following compounds; for each one, report its relative viability.
Tested on: SW 1573
method_notes: relative viability (nuclei count vs DMSO), 5 days (fraction); higher = more cells survive
details: first compound 0.01581 µM
A bare number is all that is needed in reply.

Which relative viability reading was recorded for the compound CC1(C)CCC(c2ccc(Cl)cc2)=C(CN2CCN(c3ccc(C(=O)NS(=O)(=O)c4ccc(N[C@H](CCN5CCOCC5)CSc5ccccc5)c(S(=O)(=O)C(F)(F)F)c4)cc3)CC2)C1 [Navitoclax] + Nc1nc2[nH]cc(CCc3ccc(C(=O)N[C@@H](CCC(=O)O)C(=O)O)cc3)c2c(=O)[nH]1 [Pemetrexed] (partner 0.2 µM) ?
0.773

Which relative viability reading was recorded for the compound CC1(C)CCC(c2ccc(Cl)cc2)=C(CN2CCN(c3ccc(C(=O)NS(=O)(=O)c4ccc(N[C@H](CCN5CCOCC5)CSc5ccccc5)c(S(=O)(=O)C(F)(F)F)c4)cc3)CC2)C1 [Navitoclax] + O=C(CCCCCCC(=O)Nc1ccccc1)NO [Vorinostat] (partner 1 µM) ?
0.9

Which relative viability reading was recorded for the compound CC1(C)CCC(c2ccc(Cl)cc2)=C(CN2CCN(c3ccc(C(=O)NS(=O)(=O)c4ccc(N[C@H](CCN5CCOCC5)CSc5ccccc5)c(S(=O)(=O)C(F)(F)F)c4)cc3)CC2)C1 [Navitoclax] + Nc1ncn([C@H]2C[C@H](O)[C@@H](CO)O2)c(=O)n1 [Decitabine] (partner 2 µM) ?
0.683

Which relative viability reading was recorded for the compound CC1(C)CCC(c2ccc(Cl)cc2)=C(CN2CCN(c3ccc(C(=O)NS(=O)(=O)c4ccc(N[C@H](CCN5CCOCC5)CSc5ccccc5)c(S(=O)(=O)C(F)(F)F)c4)cc3)CC2)C1 [Navitoclax] + CS(=O)(=O)CCNCc1ccc(-c2ccc3ncnc(Nc4ccc(OCc5cccc(F)c5)c(Cl)c4)c3c2)o1 [Lapatinib] (partner 2 µM) ?
1.08

Which relative viability reading was recorded for the compound CC1(C)CCC(c2ccc(Cl)cc2)=C(CN2CCN(c3ccc(C(=O)NS(=O)(=O)c4ccc(N[C@H](CCN5CCOCC5)CSc5ccccc5)c(S(=O)(=O)C(F)(F)F)c4)cc3)CC2)C1 [Navitoclax] + Cc1nc(NC(=O)N2CCC[C@H]2C(N)=O)sc1-c1ccnc(C(C)(C)C(F)(F)F)c1 [Alpelisib] (partner 2 µM) ?
0.836

* * *

System: NCI-H1975
method_notes: relative viability (nuclei count vs DMSO), 5 days (fraction); higher = more cells survive
details: first compound 0.005 µM
Consider the following compounds; for each one, report its relative viability.
A bare number is all that is needed in reply.

Which relative viability reading was recorded for the compound CC1(C)CCC(c2ccc(Cl)cc2)=C(CN2CCN(c3ccc(C(=O)NS(=O)(=O)c4ccc(N[C@H](CCN5CCOCC5)CSc5ccccc5)c(S(=O)(=O)C(F)(F)F)c4)cc3)CC2)C1 [Navitoclax] + O=C(c1cc(Cc2n[nH]c(=O)c3ccccc23)ccc1F)N1CCN(C(=O)C2CC2)CC1 [Olaparib] (partner 8 µM) ?
0.77

Which relative viability reading was recorded for the compound CC1(C)CCC(c2ccc(Cl)cc2)=C(CN2CCN(c3ccc(C(=O)NS(=O)(=O)c4ccc(N[C@H](CCN5CCOCC5)CSc5ccccc5)c(S(=O)(=O)C(F)(F)F)c4)cc3)CC2)C1 [Navitoclax] + COc1cc2c(Oc3ccc(NC(=O)C4(C(=O)Nc5ccc(F)cc5)CC4)cc3F)ccnc2cc1OCCCN1CCOCC1 [Foretinib] (partner 0.25 µM) ?
0.887

Which relative viability reading was recorded for the compound CC1(C)CCC(c2ccc(Cl)cc2)=C(CN2CCN(c3ccc(C(=O)NS(=O)(=O)c4ccc(N[C@H](CCN5CCOCC5)CSc5ccccc5)c(S(=O)(=O)C(F)(F)F)c4)cc3)CC2)C1 [Navitoclax] + NC(=O)Nc1cc(-c2cccc(F)c2)sc1C(=O)N[C@H]1CCCNC1 [AZD7762] (partner 0.2 µM) ?
0.855

Which relative viability reading was recorded for the compound CC1(C)CCC(c2ccc(Cl)cc2)=C(CN2CCN(c3ccc(C(=O)NS(=O)(=O)c4ccc(N[C@H](CCN5CCOCC5)CSc5ccccc5)c(S(=O)(=O)C(F)(F)F)c4)cc3)CC2)C1 [Navitoclax] + CCNC(=O)c1noc(-c2cc(C(C)C)c(O)cc2O)c1-c1ccc(CN2CCOCC2)cc1 [Luminespib] (partner 0.01 µM) ?
0.24

Which relative viability reading was recorded for the compound CC1(C)CCC(c2ccc(Cl)cc2)=C(CN2CCN(c3ccc(C(=O)NS(=O)(=O)c4ccc(N[C@H](CCN5CCOCC5)CSc5ccccc5)c(S(=O)(=O)C(F)(F)F)c4)cc3)CC2)C1 [Navitoclax] + CS(=O)(=O)N1CCN(Cc2cc3nc(-c4cccc5[nH]ncc45)nc(N4CCOCC4)c3s2)CC1 [Pictilisib] (partner 1 µM) ?
0.295
